- Tested System: L-xylulose reductase (Homo sapiens)
Measurement Kind: Protein interaction energy (kcal/M)

As a guide, the following entries are already answered.
O=C(O)CC(C(=O)O)C(=O)O	-163
CCCOP(=O)(O)O	-87.4
CCCC(=O)O	-40.4

I. CCC(C(=O)O)c1ccc(O)cc1 (centres undefined)
II. O=C(O)CCC(=O)O
Asked: Pick one: I or II . Which one has the lower reported Protein interaction energy? Field: selected label. Fill in the label of the entry you choose.
Given back: II
(II: -114 kcal/M, I: -51.6 kcal/M)

###

- Tested System: L-xylulose reductase (Homo sapiens) (UniProt Q7Z4W1)
- Sequence (Q7Z4W1 whole entry): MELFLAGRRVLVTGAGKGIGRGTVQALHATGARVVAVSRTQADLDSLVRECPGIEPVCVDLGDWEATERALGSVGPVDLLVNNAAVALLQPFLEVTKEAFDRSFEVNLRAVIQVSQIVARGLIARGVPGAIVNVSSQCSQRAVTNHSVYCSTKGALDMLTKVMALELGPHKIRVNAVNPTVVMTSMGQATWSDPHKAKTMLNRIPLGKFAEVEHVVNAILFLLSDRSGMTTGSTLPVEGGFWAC
Measurement Kind: Protein interaction energy (kcal/M)

As a guide, the following entries are already answered.
CCC(O)C(=O)O (centres undefined)	-38.4
CO[PH](O)(O)OCC(=O)O	-114

1. CCC(CO)C(=O)O (centres undefined)
2. CCCc1ccc(O)cc1
Asked: Pick one: 1 or 2 . Which one has the lower reported Protein interaction energy? Field: selected label. Fill in the label of the entry you choose.
Given back: 1
